Assay: particle size distribution by dynamic light scattering (Zetasizer Nano ZS)
Format: physicochemical
Conditions: O/W emulsion cationic lipid:DOPE:Cholesterol=3:4:3, 4-Methylumbelliferon 10 mol %, DMG-PEG2000 10 mol %, DSG-PEG2000 2.5 mol %
Procedure: The particle size distribution of the prepared emulsion was measured by dynamic light scattering using Zetasizer Nano ZS. The measurement conditions were 1 mM emulsion (40 μL) at 25° C. […] EPC and Cholesterol were mixed to achieve 1000 nmol and a PEG lipid was added. […] The particle size distribution of the prepared particles was measured by dynamic light scattering in the same manner as in Example 1. […]
ASSAY ENDPOINT: PdI

Please review the entries below; each comes with its answer.
COMPOUND	ASSAY ENDPOINT	MEASUREMENT
CCCCC/C=C\C/C=C\CCCCCCCC(=O)OCCCN(C)CCSSCCN(C)CCCOC(=O)CCCCCCC/C=C\C/C=C\CCCCC	PdI	0.419
Cc1c(C)c2c(c(C)c1OC(=O)CCC(=O)OCCCN(C)CCSSCCN(C)CCCOC(=O)CCC(=O)Oc1c(C)c(C)c3c(c1C)CCC(C)(CCCC(C)CCCC(C)CCCC(C)C)O3)CCC(C)(CCCC(C)CCCC(C)CCCC(C)C)O2 (stereo not drawn)	PdI	0.164

(I) CCCCCCCC/C=C\CCCCCCCC(=O)OCCCN(C)CCSSCCN(C)CCCOC(=O)CCCCCCC/C=C\CCCCCCCC
(II) CCCCCCCCCCCCCC(=O)OCCCN(C)CCSSCCN(C)CCCOC(=O)CCCCCCCCCCCCC
(III) Cc1c(C)c2c(c(C)c1OC(=O)CCC(=O)OCCC1CCN(CCSSCCN3CCC(CCOC(=O)CCC(=O)Oc4c(C)c(C)c5c(c4C)CCC(C)(CCCC(C)CCCC(C)CCCC(C)C)O5)CC3)CC1)CCC(C)(CCCC(C)CCCC(C)CCCC(C)C)O2 (stereo not drawn)
(IV) CCCCC/C=C\C/C=C\CCCCCCCC(=O)OCCN1CCN(CCSSCCN2CCN(CCOC(=O)CCCCCCC/C=C\C/C=C\CCCCC)CC2)CC1
stdin: Which order do these items take when sorted by rising PdI? List them. Would you mind listing the labels in the order asked for?
stdout: III, IV, I, II
(III: 0.063, IV: 0.092, I: 0.228, II: 0.465)
